# experimental.target: T1, rhNav1.7α+β1-β2-β3 (rhesus monkey α subunit with human β …)
# T1 construct: P2A cleaves it into α, β1, β2, β3; also called rhNav1.7-beta1-beta2-beta3
# test: binding FACS, CHO FlpIn cells
endpoint: binding result

F0103362B08 (parental)-FLAG-HIS6 (VHH) VHH: EVQLVESGGGLVQAGGSLRLSCAASVRPFSTSAMGWFRQAPEKEREAVAGILWNGIVTYYADSVKGRFTISRDNAKNEVYLQMNKLKPEDTAVYYCALDRDYGGRSFSAYEYEYWGQGTLVTVSS :: no binding
F0103265A11 (parental)-FLAG-HIS6 (VHH, also called F01033265A11) VHH: EVQLVESGGGLVQPGGSLRLSCAASGMLFNANTQGWYRQAPGKQRELVAFIFSGGYTNYVDSVKGRFTISRDNAKRTMYLQMNSLKPEDSAIYYCSLSRYLGQGTLVTVSS :: no binding
